- measurement.description: Microsomal stability (rat)
- Assay type: in vitro ADME
- conditions: rat microsomes
Classify as follows. Reported Microsomal Stability (rat) T1/2 greater than or equal to 10 min: Yes. Reported Microsomal Stability (rat) T1/2 below: No.

Answered cases to consult:
## Input Is Microsomal Stability (rat) T1/2 for O=C(c1ccc(-n2c(=O)ccc3cnc4ccc(-c5ccc(CCN6CCOCC6)cc5)cc4c32)cc1)N1CCOCC1 [Compound 182] at or above 10 min?
## Output Yes

## Input Request: CCN(CC)S(=O)(=O)c1ccc(-n2c(=O)ccc3cnc4ccc(-c5ccc(Cl)cc5)cc4c32)cc1 [Compound 39]
## Output No

***
## Input Is Microsomal Stability (rat) T1/2 for N#Cc1cc(-n2c(=O)ccc3cnc4ccc(-c5ccc(Cl)cc5)cc4c32)ccc1C(=O)N1CCOCC1 [Compound 271] at or above 10 min?
## Output Yes

----------
- measurement.description: PAMPA permeability
- Assay type: in vitro ADME
Consider the following compounds and their measured PAMPA Permeability readings.
Write the answer as a number in ×10⁻⁶ cm/s, unit excluded.

Worked set:
## Input Please look up its PAMPA Permeability: CN(C)C(=O)c1cc(-c2ccc3ncc4ccc(=O)n(-c5ccc(C(=O)N6CCOCC6)cc5)c4c3c2)ccc1Cl
## Output 98.3

## Input Request: COc1cc(C(=O)NC2CCN(CCO)CC2)ccc1-n1c(=O)ccc2cnc3ccc(-c4ccc(Cl)cc4)cc3c21
## Output 5.7

Next item in the queue.
## Input Please look up its PAMPA Permeability: O=C(c1ccc(-n2c(=O)ccc3cnc4ccc(-c5ccc(Cl)cc5)cc4c32)cc1)N(CCO)CCO
## Output 285

----------
- measurement.description: Solubility at pH 7.4
- Type: physicochemical
Consider the following compounds and their measured Sol @ pH 7.4 (ug/mL) readings.
Write the answer as a number in ug/mL, unit excluded.

Worked set:
## Input Please look up its Sol @ pH 7.4 (ug/mL): CCNC(=O)c1cc(-c2ccc3ncc4ccc(=O)n(-c5ccc(S(C)(=O)=O)cc5)c4c3c2)ccc1Cl
## Output 9.6

## Input Request: CC(N)c1ccc(-c2ccc3ncc4ccc(=O)n(-c5ccc6c(c5)CNC6=O)c4c3c2)cc1 (stereo not shown)
## Output 44.9

## Input Request: N#Cc1cc(-n2c(=O)ccc3cnc4ccc(-c5ccc(N)nc5)cc4c32)ccc1N1CCOCC1
## Output 1.48

Next item in the queue.
## Input Please look up its Sol @ pH 7.4 (ug/mL): CC(C)(C)OC(=O)CN1Cc2cc(-n3c(=O)ccc4cnc5ccc(-c6ccc(Cl)cc6)cc5c43)ccc2C1=O
## Output 2.7

----------
Consider the following molecules and their measured Sol @ pH 7.4 readings.
- measurement.description: Solubility at pH 7.4
- Format: physicochemical
Write the answer as a number in ug/mL, unit excluded.

## Input Please look up its Sol @ pH 7.4: CC1CCN(CCCNC(=O)c2ccc(-n3c(=O)ccc4cnc5ccc(-c6ccc(Cl)cc6)cc5c43)cc2)CC1 [Compound 286]
## Output 35.6

***
## Input Please look up its Sol @ pH 7.4: CN(C)C(=O)c1ccc(-n2c(=O)ccc3c[n+]([O-])c4ccc(-c5ccc(Cl)cc5)cc4c32)cc1 [Compound 208]
## Output 35.5

## Input Request: N#Cc1cc(-n2c(=O)ccc3cnc4ccc(-c5ccc(Cl)cc5)cc4c32)ccc1C(=O)N1CCOCC1 [Compound 271]
## Output 0

## Input Request: Cc1cc(C(=O)N2CCOCC2)ccc1-n1c(=O)ccc2cnc3ccc(-c4ccc(Cl)cc4)cc3c21 [Compound 110]
## Output 1.1

## Input Request: CN(C)CC#Cc1ccc2ncc3c(c2c1)n(-c1cccc(C#N)c1)c(=O)n3C [Compound 396]
## Output 46.4

## Input Request: Cc1cc(C(=O)NCCCN2CCOCC2)ccc1-n1c(=O)ccc2cnc3ccc(-c4ccc(F)cc4)cc3c21 [Compound 297]
## Output 0

## Input Request: O=C(c1ccc(-n2c(=O)ccc3cnc4ccc(-c5cccc(O)c5)cc4c32)cc1)N1CCOCC1 [Compound 128]
## Output 1.5

## Input Request: COc1cc(C(=O)NC2CCN(CCO)CC2)ccc1-n1c(=O)ccc2cnc3ccc(-c4ccc(Cl)cc4)cc3c21 [Compound 254]
## Output 53.1

## Input Request: Cc1cc(C(=O)NC2CC2)ccc1-n1c(=O)ccc2cnc3ccc(-c4ccc(F)c(O)c4)cc3c21 [Compound 222]
## Output 7.1

----------
- target.or.test.system: mTOR (Homo sapiens)
- measurement.description: mTOR activity (no method described)
- Type: biochemical
measure.name: mTOR (µM)
Write the answer as a number in µM, unit excluded.

Worked set:
## Input Please look up its mTOR: O=C(NCC1CCOCC1)c1ccc(-n2c(=O)ccc3cnc4ccc(-c5ccc(Cl)cc5)cc4c32)cc1 [Compound 288]
## Output 1.258

## Input Request: COc1cc(-c2ccc3ncc4c(c3c2)n(-c2cc(C#N)ccc2C)c(=O)n4C)ccc1F [Compound 409]
## Output 50

## Input Request: CN(C)Cc1ccc(-c2ccc3ncc4ccc(=O)n(-c5ccc(C(=O)N(CCO)CCO)cc5)c4c3c2)cc1 [Compound 160]
## Output 9.278

***
## Input Please look up its mTOR: Cc1ccc(C#N)cc1-n1c(=O)n(C)c2cnc3ccc(-c4ccc(Cl)cc4)cc3c21 [Compound 400]
## Output 100

## Input Request: NC(=O)c1ccc(-n2c(=O)ccc3cnc4ccc(-c5ccc(Cl)cc5)cc4c32)cc1 [Compound 239]
## Output 0.2422

## Input Request: Cc1cc(C(=O)NCCN2CCNCC2)ccc1-n1c(=O)ccc2cnc3ccc(-c4ccc(Cl)cc4)cc3c21 [Compound 313]
## Output 1.429

## Input Request: CN(C)CC#Cc1ccc2ncc3ccc(=O)n(-c4ccc(C(=O)N5CCOCC5)cc4)c3c2c1 [Compound 218]
## Output 16.25

----------
Consider the following molecules and their measured Sol @ pH 7.4 readings.
- measurement.description: Solubility at pH 7.4
- Format: physicochemical
Write the answer as a number in ug/mL, unit excluded.

## Input Please look up its Sol @ pH 7.4: Cc1ccc(C#N)cc1-n1c(=O)n(C)c2cnc3ccc(-c4ccc(F)cc4)cc3c21 [Compound 411]
## Output 0

## Input Request: COc1cc(C(=O)NC2CC2)ccc1-n1c(=O)ccc2cnc3ccc(-c4ccc(Cl)cc4)cc3c21 [Compound 191]
## Output 2.4

## Input Request: CN(C)Cc1ccc(-c2ccc3ncc4c(c3c2)n(-c2cccc(C#N)c2)c(=O)n4C)cc1 [Compound 436]
## Output 52.9

***
## Input Please look up its Sol @ pH 7.4: Cc1ccc(C#N)cc1-n1c(=O)n(C)c2cnc3ccc(-c4cccc(C#N)c4)cc3c21 [Compound 412]
## Output 0

----------
- measurement.description: Solubility at pH 7.4
- Type: physicochemical
Consider the following compounds and their measured Sol @ pH 7.4 (ug/mL) readings.

Worked set:
## Input Please look up its Sol @ pH 7.4 (ug/mL): CN(C)Cc1ccc(-c2ccc3ncc4ccc(=O)n(-c5ccc6c(c5)NC(=O)C6)c4c3c2)cc1
## Output 52.5 ug/mL

## Input Request: CS(=O)(=O)c1cccc(-n2c(=O)ccc3cnc4ccc(-c5ccc(Cl)cc5)cc4c32)c1
## Output 0.01 ug/mL

## Input Request: O=C1NCc2ccc(-n3c(=O)ccc4cnc5ccc(-c6ccc(Cl)cc6)cc5c43)cc21
## Output <1.0 ug/mL

## Input Request: O=C1NCc2cc(-n3c(=O)ccc4cnc5ccc(-c6ccc(Cl)cc6)cc5c43)ccc21
## Output <1.0 ug/mL

## Input Request: N#Cc1cccc(-n2c(=O)ccc3cnc4ccc(-c5ccc(N)nc5)cc4c32)c1
## Output <1.0 ug/mL

***
## Input Please look up its Sol @ pH 7.4 (ug/mL): CN(C)Cc1ccc(-c2ccc3ncc4ccc(=O)n(-c5ccc(S(C)(=O)=O)c(N6CCOCC6)c5)c4c3c2)cc1
## Output >84.00 ug/mL

## Input Request: CS(=O)(=O)c1ccc(-n2c(=O)ccc3cnc4ccc(-c5ccc(Cl)c(C(=O)O)c5)cc4c32)cc1
## Output >74.0 ug/mL

## Input Request: Cc1cc(S(C)(=O)=O)ccc1-n1c(=O)ccc2cnc3ccc(-c4ccc(N)nc4)cc3c21
## Output 1.2 ug/mL

----------
- measurement.description: Solubility at pH 7.4
- Type: physicochemical
measure.name: Sol @ pH 7.4 (ug/mL)
Write the answer as a number in ug/mL, unit excluded.

Worked set:
## Input Please look up its Sol @ pH 7.4: CN(C)Cc1ccc(-c2ccc3ncc4ccc(=O)n(-c5ccc(C(=O)N6CCOCC6)cc5)c4c3c2)cc1 [Compound 86]
## Output 61.6

## Input Request: Nc1cc(Cl)ccc1-c1ccc2ncc3ccc(=O)n(-c4ccc(C(=O)N5CCOCC5)cc4)c3c2c1 [Compound 136]
## Output 8.6

***
## Input Please look up its Sol @ pH 7.4: CCN(CC)CCCNC(=O)c1ccc(-n2c(=O)ccc3cnc4ccc(-c5ccc(Cl)cc5)cc4c32)cc1 [Compound 266]
## Output 0
